B1: glmS ribozyme (parent)
chain: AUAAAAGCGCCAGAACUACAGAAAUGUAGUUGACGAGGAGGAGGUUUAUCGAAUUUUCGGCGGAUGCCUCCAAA

- Variants of: B1
- run description: self-cleavage kobs at 640 uM GlcN6P; higher = faster cleavage; RNA array
- assay setup: with glucosamine-6-phosphate
Fewer inactive variants are shown than the library holds.
metric: self-cleavage kobs at 640 uM GlcN6P

>  <mutant id>
A6U G7C C8G G38U

>  <self-cleavage kobs at 640 uM GlcN6P>
< 1e-05 s⁻¹

$$$$
>  <mutant id>
A14C G35A

>  <self-cleavage kobs at 640 uM GlcN6P>
< 1e-05 s⁻¹

$$$$
>  <mutant id>
C8G C11U G32U G59U

>  <self-cleavage kobs at 640 uM GlcN6P>
< 1e-05 s⁻¹

$$$$

Could you tell me self-cleavage kobs at 640 uM GlcN6P for each of these variants? They are listed below.
1. G32A A53U U65C
2. G7C A33G A53U A64G

1: < 1e-05 s⁻¹; 2: < 1e-05 s⁻¹

Could you tell me self-cleavage kobs at 640 uM GlcN6P for each of these variants? They are listed below.
1. G29C G62A
2. C10U C16U A39U G60U C67G U69G
3. G40A G51A U55A
4. G41C C50U G59U
5. A36G C58A G59U C70U
6. C11A U55G C61G G62C

< 1e-05 s⁻¹
< 1e-05 s⁻¹
< 1e-05 s⁻¹
< 1e-05 s⁻¹
< 1e-05 s⁻¹
< 1e-05 s⁻¹
